Attribution: the supplement of paper PMC11908140

B1: library; numbered along this chain (parent)
chain: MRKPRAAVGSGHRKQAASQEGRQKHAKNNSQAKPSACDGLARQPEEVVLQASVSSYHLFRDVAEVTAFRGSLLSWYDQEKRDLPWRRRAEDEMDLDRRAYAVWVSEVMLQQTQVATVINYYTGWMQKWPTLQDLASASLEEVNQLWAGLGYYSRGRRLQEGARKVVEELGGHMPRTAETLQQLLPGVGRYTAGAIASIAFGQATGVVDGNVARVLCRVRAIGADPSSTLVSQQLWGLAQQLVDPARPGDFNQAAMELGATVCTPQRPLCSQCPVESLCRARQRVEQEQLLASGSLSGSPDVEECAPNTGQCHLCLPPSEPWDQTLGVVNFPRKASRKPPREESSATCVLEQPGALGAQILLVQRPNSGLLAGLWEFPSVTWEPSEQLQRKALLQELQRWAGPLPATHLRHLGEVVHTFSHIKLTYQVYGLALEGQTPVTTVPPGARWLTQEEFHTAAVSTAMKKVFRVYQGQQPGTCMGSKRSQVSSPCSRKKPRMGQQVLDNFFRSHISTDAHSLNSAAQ

variants of: B1; test: 8OG:A repair function score (normalized; synonymous = 0, nonsense = -1) (normalized log-likelihood score); higher = more repair activity (WT-like); conditions: with 8OG:A DNA repair reporter (GFP) in HEK-293 MUTYH KO cells;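 also: cells sorted at 72 h after reporter transfection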
measured.attribute: 8OG:A repair function score
Respond using a number only.

Some solved cases for reference:
{"mutant.code": "R491P", "reported.value": -0.0953}
{"mutant.code": "Q484W", "reported.value": 0.00872}
{"mutant.code": "A280P", "reported.value": -0.965}
{"mutant.code": "R98P", "reported.value": -0.714}
{"mutant.code": "L229N", "reported.value": -0.25}

Now take the following variant into account.
R175S yielded 8OG:A repair function score of -0.0258
